Test: melting temperature; fluorescence melt of hairpins on a sequencing array, two-state fit, raised by 9.35 °C to match UV melts
Conditions: sodium 0.088 M
# maps each entry to its Tm

Consider the worked cases shown below.
[
  {
    "sequence_entry": "CGCGACGGAAACGTAGCG (((.(((....))).)))",
    "Tm": "58.6 °C"
  },
  {
    "sequence_entry": "GTAGGCGAAAGCCGTTAC ((((((....)))..)))",
    "Tm": "39.8 °C"
  },
  {
    "sequence_entry": "GCAGTTGGAAACAATTGC (((.(((....))).)))",
    "Tm": "46.9 °C"
  },
  {
    "sequence_entry": "GATCCAGGGGTGGATC ((((((....))))))",
    "Tm": "50.4 °C"
  },
  {
    "sequence_entry": "GAATGCGAAAGCATGTTC ((((((....)))..)))",
    "Tm": "42.6 °C"
  },
  {
    "sequence_entry": "GTACAAACGAAAGTTTAC (((..(((....))))))",
    "Tm": "22.1 °C"
  }
]

**Q:** Return reported Tm; argument: GCGAATATCGC ((((...))))
**A:** 46.5 °C

**Q:** How about this sequence: GATCCGACATCGGATC ((((((....))))))
**A:** 55.8 °C

**Q:** // repeat for GCTTGGCGAAAGCCTCGC ((..(((....)))..)) and report
**A:** 41.8 °C

**Q:** Okay, and GATCCCATGGGGATC ((((((...)))))) ?
**A:** 65.8 °C

**Q:** // next record GCTGTTGGAAACGATAGC (((.(.(....).).)))
**A:** 32 °C

**Q:** Follow-up entry: GTCGGAGAAATCCGAC ((((((....))))))
**A:** 61.7 °C

----------
Experiment: melting temperature; fluorescence melt of hairpins on a sequencing array, two-state fit, raised by 9.35 °C to match UV melts
Conditions: sodium 0.088 M
assay_metric: Tm (°C)
Answer with a number only, understood to be in °C.

[
  {
    "sequence_entry": "GTTGAGGGAAACCTCGAC ((.((((....)))).))",
    "readout_number": 49.8
  }
]

Kindly consider the entry below.
**Q:** # lookup: Tm of GATCGTTGAGACGATC ((((((....))))))
**A:** 58.1

----------
Experiment: folding enthalpy; higher = less favourable; fluorescence melt of hairpins on a sequencing array, two-state fit
Conditions: sodium 0.088 M
Please enter true where folding enthalpy is greater than or equal to -20 kcal/mol, and false where it is lower.

Look over these answered cases.
[
  {
    "sequence_entry": "GTCTGCGAAAGCACCGAC ((((((....)))..)))",
    "discrete_label": "true"
  },
  {
    "sequence_entry": "GCCTTCGAAAGAAAGGC ((((((....))).)))",
    "discrete_label": "false"
  }
]

**Q:** Form field: folding enthalpy at least -20 kcal/mol? Entry: GAGACAGGAAACCGTCTC (((((.(....).)))))
**A:** false

**Q:** Please give the result for GATCCATACCTGGATC ((((((....)))))) too.
**A:** false

**Q:** Quick one: GAGAACACGAAAGTGCTC (((..(((....))))))
**A:** true
